tested.system: Cytochrome P450 2C9 (Homo sapiens)
assay.notes: Cytochrome P450 Family 2 Subfamily C Member 9 (CYP2C9) small molecule antagonists: luciferase reporter qHTS assay (AID 1671198); also: nearly all actives have a fitted effect of over 50% in size
condition.parameters: P450-Glo CYP2C9 enzyme assay, luciferin luminescence; series mostly up to 115 µM
Results filed as inconclusive are left out. Calls of active or inactive are those of the source. Calls follow the shape of the dose curve; as a rule, active = well fitted inhibition curve with a large enough effect in the repeat runs; inconclusive = weak or mixed curves; inactive = no such curve, though single readings can be large or run the other way.
Lab note: assign the record to one of active, inactive

Task item: Dear all, I need the recorded test outcome for O=C(OOC(=O)c1ccccc1)c1ccccc1 , thank you.
Reply: inactive

Task item: Dear all, I need the recorded test outcome for CN(C)CCC[C@@]1(c2ccc(F)cc2)OCc2cc(C#N)ccc21 , thank you.
Reply: inactive

Task item: Dear all, I need the recorded test outcome for CC(C)(C)C(=O)NCCCC(=O)O , thank you.
Reply: inactive

Task item: Dear all, I need the recorded test outcome for CCCCCCCCCCCCCCBr , thank you.
Reply: inactive

Task item: Dear all, I need the recorded test outcome for CCCCC(CC)COC(=O)CC#N (stereo not given) , thank you.
Reply: active

---

tested.system: Cytochrome P450 2C9 (Homo sapiens) (UniProt P11712)
Sequence (P11712 whole entry, looked up): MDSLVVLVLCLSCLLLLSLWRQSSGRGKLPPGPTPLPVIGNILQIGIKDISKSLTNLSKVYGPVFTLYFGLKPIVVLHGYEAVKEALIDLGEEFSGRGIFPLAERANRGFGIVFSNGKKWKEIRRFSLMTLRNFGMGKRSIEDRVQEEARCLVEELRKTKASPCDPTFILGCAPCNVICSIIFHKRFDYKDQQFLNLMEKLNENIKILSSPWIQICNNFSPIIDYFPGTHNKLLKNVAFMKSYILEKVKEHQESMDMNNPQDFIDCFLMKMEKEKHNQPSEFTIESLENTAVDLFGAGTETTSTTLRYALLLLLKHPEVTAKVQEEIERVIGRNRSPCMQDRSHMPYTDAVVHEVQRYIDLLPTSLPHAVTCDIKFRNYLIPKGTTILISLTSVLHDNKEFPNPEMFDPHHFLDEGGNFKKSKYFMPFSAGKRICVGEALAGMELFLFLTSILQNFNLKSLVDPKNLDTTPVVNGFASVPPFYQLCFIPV
assay.notes: Cytochrome P450 Family 2 Subfamily C Member 9 (CYP2C9) small molecule antagonists: luciferase reporter qHTS assay (AID 1671198); also: nearly all actives have a fitted effect of over 50% in size
condition.parameters: P450-Glo CYP2C9 enzyme assay, luciferin luminescence; series mostly up to 115 µM
Results filed as inconclusive are left out. Activity calls are given as the source filed them. The call rests on the fitted dose curve; in most records, active means well fitted inhibition curve with a large enough effect in the repeat runs; inconclusive means weak or mixed curves; inactive means no such curve, though single readings can be large or run the other way.
Lab note: assign the record to one of active, inactive

Task item: Dear all, I need the recorded test outcome for CCCCc1ccc(Cl)cc1 , thank you.
Reply: inactive

Task item: Dear all, I need the recorded test outcome for COc1ccc(Cl)cc1C , thank you.
Reply: active

Task item: Dear all, I need the recorded test outcome for C=C(C)C(=O)OCCOC1CC2CC1C1C=CCC21 (centres undefined) , thank you.
Reply: active

Task item: Dear all, I need the recorded test outcome for C[C@]12C=CC(=O)C=C1[C@@H](F)C[C@@H]1[C@@H]2[C@@H](O)C[C@@]2(C)[C@H]1CC[C@]2(O)C(=O)CO , thank you.
Reply: inactive

Task item: Dear all, I need the recorded test outcome for CCCC(=O)CC , thank you.
Reply: inactive

Task item: Dear all, I need the recorded test outcome for COC(=O)/C=C(\C)CCC=C(C)C , thank you.
Reply: active

Task item: Dear all, I need the recorded test outcome for O=c1c(O)c(O)c1=O , thank you.
Reply: inactive

Task item: Dear all, I need the recorded test outcome for Cc1nc2ccc(Cl)cc2[nH]1 , thank you.
Reply: inactive

Task item: Dear all, I need the recorded test outcome for CCCCCCCCCCCCCC(=O)OCC , thank you.
Reply: inactive

Task item: Dear all, I need the recorded test outcome for CC/C=C\CCCCCCCCCCOC(C)=O , thank you.
Reply: inactive

Task item: Dear all, I need the recorded test outcome for O=C(O)Cc1ccccc1Oc1ccc(Cl)cc1Cl , thank you.
Reply: active

Task item: Dear all, I need the recorded test outcome for CC(=O)OC1CCC(C(C)(C)C)CC1 (centres undefined) , thank you.
Reply: inactive

Task item: Dear all, I need the recorded test outcome for CCCCCCCC(=O)N(C)C , thank you.
Reply: inactive

Task item: Dear all, I need the recorded test outcome for CN(C)CCc1c[nH]c2ccc(CS(=O)(=O)N3CCCC3)cc12 , thank you.
Reply: inactive

---

tested.system: Cytochrome P450 3A4 (Homo sapiens)
assay.notes: Cytochrome P450 Family 3 Subfamily A Member 4 (CYP3A4) small molecule antagonists: luciferase reporter qHTS assay (AID 1671201); also: nearly all actives have a fitted effect of over 50% in size
condition.parameters: P450-Glo CYP3A4 enzyme, luciferin luminescence, 1 h; series mostly up to 115 µM
Inconclusive results are not listed. Calls of active or inactive are those of the source. Calls come from the whole dose curve; as a rule, active = well fitted inhibition curve with a large enough effect in the repeat runs; inconclusive = weak or mixed curves; inactive = no such curve, though single readings can be large or run the other way.
Lab note: assign the record to one of active, inactive

Task item: Dear all, I need the recorded test outcome for CCCCCCCCCCCBr , thank you.
Reply: inactive

Task item: Dear all, I need the recorded test outcome for C=C(C)C(=O)OCCCC , thank you.
Reply: inactive

Task item: Dear all, I need the recorded test outcome for CC(C)C[P+](C)(CC(C)C)CC(C)C , thank you.
Reply: inactive

Task item: Dear all, I need the recorded test outcome for CCCCCCCCCCCCCCCC/C=C/C1CC(=O)OC1=O (centres undefined) , thank you.
Reply: active

Task item: Dear all, I need the recorded test outcome for CCCCCCC(O)CO (centres undefined) , thank you.
Reply: inactive

Task item: Dear all, I need the recorded test outcome for CC/C=C/CCCCCCCCCCOC(C)=O , thank you.
Reply: inactive

Task item: Dear all, I need the recorded test outcome for CC(CN1CC(=O)NC(=O)C1)N1CC(=O)NC(=O)C1 (centres undefined) , thank you.
Reply: inactive

Task item: Dear all, I need the recorded test outcome for CCCc1ccc(O)c(OC)c1 , thank you.
Reply: inactive

Task item: Dear all, I need the recorded test outcome for CC/C=C\CCOC(=O)c1ccccc1 , thank you.
Reply: inactive

Task item: Dear all, I need the recorded test outcome for O=CN1CCCCC1 , thank you.
Reply: inactive

Task item: Dear all, I need the recorded test outcome for COC(=O)c1cc(Cl)c(NC(C)=O)cc1OC , thank you.
Reply: inactive

Task item: Dear all, I need the recorded test outcome for CCCCNCC , thank you.
Reply: inactive

Task item: Dear all, I need the recorded test outcome for N#CC1(N)CCCCC1 , thank you.
Reply: inactive

Task item: Dear all, I need the recorded test outcome for C/C(Cl)=C/CCl , thank you.
Reply: inactive

Task item: Dear all, I need the recorded test outcome for Cc1cc(=O)oc2cc(O[C@@H]3SC[C@@H](O)[C@H](O)[C@H]3O)ccc12 , thank you.
Reply: inactive

Task item: Dear all, I need the recorded test outcome for CC(C)(C)OC=O , thank you.
Reply: inactive

Task item: Dear all, I need the recorded test outcome for C=CC(=O)OCC[N+](C)(C)C , thank you.
Reply: inactive

Task item: Dear all, I need the recorded test outcome for O=c1c(O)c(O)c1=O , thank you.
Reply: inactive

Task item: Dear all, I need the recorded test outcome for CCCCOCCCC , thank you.
Reply: inactive

Task item: Dear all, I need the recorded test outcome for CCC(C)c1nccnc1OC (centres undefined) , thank you.
Reply: inactive

Task item: Dear all, I need the recorded test outcome for COCc1nnc(-c2ccc[n+]([O-])c2)n1-c1c(Cl)c(Cl)cc2[nH]c(=O)c(=O)[nH]c12 , thank you.
Reply: active

Task item: Dear all, I need the recorded test outcome for N#Cc1ccccc1C#N , thank you.
Reply: inactive

Task item: Dear all, I need the recorded test outcome for O=C(O)P(=O)(O)O , thank you.
Reply: inactive

Task item: Dear all, I need the recorded test outcome for CC(=O)c1ccc(O)c(C(N)=O)c1 , thank you.
Reply: inactive

Task item: Dear all, I need the recorded test outcome for CCCCCCCCOCCC#N , thank you.
Reply: inactive

Task item: Dear all, I need the recorded test outcome for CCCCCCCOC(C)=O , thank you.
Reply: inactive

Task item: Dear all, I need the recorded test outcome for CC1=C(O)C(=O)CO1 , thank you.
Reply: inactive

Task item: Dear all, I need the recorded test outcome for CCOC(=O)CC , thank you.
Reply: inactive

Task item: Dear all, I need the recorded test outcome for OCCC(F)(F)C(F)(F)C(F)(F)C(F)(F)C(F)(F)C(F)(F)F , thank you.
Reply: inactive

Task item: Dear all, I need the recorded test outcome for C[n+]1ccccc1/C=N/O , thank you.
Reply: inactive

Task item: Dear all, I need the recorded test outcome for CC(C)(C)C(=O)CC(=O)C(C)(C)C , thank you.
Reply: inactive

Task item: Dear all, I need the recorded test outcome for O=C1c2ccccc2C(=O)N1CO , thank you.
Reply: inactive

Task item: Dear all, I need the recorded test outcome for Cc1ccc(Br)cc1 , thank you.
Reply: inactive

Task item: Dear all, I need the recorded test outcome for CN(C)c1ccncc1 , thank you.
Reply: inactive
